test system: Salmonella enterica; test: Antibacterial activity against Salmonella typhi at 1 mg/ml after 24 hrs by agar-well diffusion method; type: functional, Salmonella enterica subsp. enterica serovar Typhi; details: Salmonella enterica, 24 h; read-out: DIZ
Measured Metric: zone of inhibition at 1000 µg/mL (mm)
Express the result in mm but write the number alone.

C(=N\c1n[nH]c(/N=C/c2ccc[nH]2)n1)/c1ccc[nH]1 : 16
C[C@@H](O)[C@H]1C(=O)N2C(C(=O)O)=C(SCCNC=N)C[C@H]12 [IMIPENEM ANHYDROUS] : 29
Oc1ccc2ccccc2c1/C=N/c1n[nH]c(/N=C/c2c(O)ccc3ccccc23)n1 : 14
C(=N\c1n[nH]c(/N=C/c2ccccn2)n1)/c1ccccn1 : 11

API: the following record is the query input.
zone of inhibition at 1000 µg/mL for `C/C(=N\c1n[nH]c(/N=C(\C)c2ccccn2)n1)c1ccccn1` ?
16

###

tested on: Salmonella enterica; assay: Antibacterial activity against Salmonella typhi at 1 mg/ml after 24 hrs by agar-well diffusion method; assay type: functional, Salmonella enterica subsp. enterica serovar Typhi
Below, each entry is listed with its recorded Activity.
Express the result in % but write the number alone.

Here are 3 compounds together with their reported answers.
C/C(=N\c1n[nH]c(/N=C(\C)c2ccccn2)n1)c1ccccn1 : 58
C(=N\c1n[nH]c(/N=C/c2ccc[nH]2)n1)/c1ccc[nH]1 : 55
C(=N\c1n[nH]c(/N=C/c2ccccn2)n1)/c1ccccn1 : 43

API: the following record is the query input.
What reported Activity corresponds to `Oc1ccc2ccccc2c1/C=N/c1n[nH]c(/N=C/c2c(O)ccc3ccccc23)n1` on Salmonella enterica?
35

###

system: Artemia salina; assay: Toxicity in Artemia salina nauplii assessed as mortality after 24 hrs; type: organism-based; conditions: in vivo
Below, each entry is listed with its recorded LD50.

LD50 for `C/C(=N\c1n[nH]c(/N=C(\C)c2ccccn2)n1)c1ccccn1` ?
> 3.341 ×10⁻⁴ M/ml

LD50 for `C(=N\c1n[nH]c(/N=C/c2ccccn2)n1)/c1ccccn1` ?
> 4.128 ×10⁻⁴ M/ml

LD50 for `C(=N\c1n[nH]c(/N=C/c2ccc[nH]2)n1)/c1ccc[nH]1` ?
> 6.897 ×10⁻⁴ M/ml

LD50 for `Oc1ccc2ccccc2c1/C=N/c1n[nH]c(/N=C/c2c(O)ccc3ccccc23)n1` ?
> 7.614 ×10⁻⁴ M/ml

###

tested on: Escherichia coli; test: Antibacterial activity against Escherichia coli at 1 mg/ml after 24 hrs by agar-well diffusion method; type: functional
Below, each entry is listed with its recorded Activity.
Express the result in % but write the number alone.

Here are 3 compounds together with their reported answers.
C(=N\c1n[nH]c(/N=C/c2ccc[nH]2)n1)/c1ccc[nH]1 : 55
C/C(=N\c1n[nH]c(/N=C(\C)c2ccccn2)n1)c1ccccn1 : 58
C(=N\c1n[nH]c(/N=C/c2ccccn2)n1)/c1ccccn1 : 43

Activity for `Oc1ccc2ccccc2c1/C=N/c1n[nH]c(/N=C/c2c(O)ccc3ccccc23)n1` ?
35
